# test_system: human FGFR1c + KLB receptor complex on HEK293 iLite FGF21 reporter cells (human, UniProt P11362 22-822; Q86Z14 1-1044)
# Sequence (P11362 22-822, chain 1 of 2): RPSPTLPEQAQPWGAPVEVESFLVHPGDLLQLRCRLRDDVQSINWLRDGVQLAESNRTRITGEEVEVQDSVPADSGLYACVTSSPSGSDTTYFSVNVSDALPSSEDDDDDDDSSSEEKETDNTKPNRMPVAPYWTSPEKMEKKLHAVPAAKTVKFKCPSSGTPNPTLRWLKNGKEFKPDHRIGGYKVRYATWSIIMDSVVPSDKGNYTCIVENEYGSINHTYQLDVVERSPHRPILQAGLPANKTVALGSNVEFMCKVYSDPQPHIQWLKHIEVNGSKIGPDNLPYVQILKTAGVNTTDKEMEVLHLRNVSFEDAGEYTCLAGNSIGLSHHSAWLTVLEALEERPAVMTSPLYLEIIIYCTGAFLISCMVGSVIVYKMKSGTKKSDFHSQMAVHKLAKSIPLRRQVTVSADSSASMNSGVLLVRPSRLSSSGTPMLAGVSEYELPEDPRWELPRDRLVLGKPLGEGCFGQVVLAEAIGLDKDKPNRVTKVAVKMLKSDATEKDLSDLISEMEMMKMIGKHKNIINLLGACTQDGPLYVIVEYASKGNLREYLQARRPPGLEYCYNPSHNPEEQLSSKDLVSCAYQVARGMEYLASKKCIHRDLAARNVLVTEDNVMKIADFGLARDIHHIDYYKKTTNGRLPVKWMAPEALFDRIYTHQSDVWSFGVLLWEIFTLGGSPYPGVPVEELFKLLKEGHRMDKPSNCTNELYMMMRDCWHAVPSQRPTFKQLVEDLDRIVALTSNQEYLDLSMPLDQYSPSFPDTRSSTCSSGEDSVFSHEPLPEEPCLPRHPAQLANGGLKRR
# Sequence (Q86Z14 whole entry, chain 2 of 2): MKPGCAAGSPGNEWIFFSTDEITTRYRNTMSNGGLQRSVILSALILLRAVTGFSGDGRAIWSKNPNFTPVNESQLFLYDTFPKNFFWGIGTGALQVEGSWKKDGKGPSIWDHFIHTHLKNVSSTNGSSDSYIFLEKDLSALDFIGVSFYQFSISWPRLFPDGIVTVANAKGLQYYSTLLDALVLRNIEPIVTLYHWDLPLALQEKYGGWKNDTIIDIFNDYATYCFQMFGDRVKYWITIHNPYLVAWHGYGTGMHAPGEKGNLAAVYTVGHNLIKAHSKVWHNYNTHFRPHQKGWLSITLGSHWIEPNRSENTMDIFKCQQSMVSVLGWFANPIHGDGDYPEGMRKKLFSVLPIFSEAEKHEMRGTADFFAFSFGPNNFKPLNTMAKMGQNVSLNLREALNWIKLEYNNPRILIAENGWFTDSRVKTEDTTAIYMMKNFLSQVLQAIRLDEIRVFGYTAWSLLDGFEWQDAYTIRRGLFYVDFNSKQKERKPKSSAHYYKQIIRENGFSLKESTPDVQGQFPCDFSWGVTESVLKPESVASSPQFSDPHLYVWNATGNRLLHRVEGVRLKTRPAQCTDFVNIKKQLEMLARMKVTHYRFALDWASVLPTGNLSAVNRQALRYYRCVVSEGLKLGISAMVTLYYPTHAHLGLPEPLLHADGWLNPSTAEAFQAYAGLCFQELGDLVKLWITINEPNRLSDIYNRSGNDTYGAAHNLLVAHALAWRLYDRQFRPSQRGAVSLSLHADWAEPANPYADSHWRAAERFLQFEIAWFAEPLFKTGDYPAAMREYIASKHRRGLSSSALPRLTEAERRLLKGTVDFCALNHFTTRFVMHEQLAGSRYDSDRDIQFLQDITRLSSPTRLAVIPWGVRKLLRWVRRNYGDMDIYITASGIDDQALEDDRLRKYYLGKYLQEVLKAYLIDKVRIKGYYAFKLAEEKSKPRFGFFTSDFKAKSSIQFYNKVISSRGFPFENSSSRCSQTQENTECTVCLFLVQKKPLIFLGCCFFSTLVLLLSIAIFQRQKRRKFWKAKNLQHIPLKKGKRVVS
# method_description: cell-based or functional assay
EC50 overview

1. Ab0381 (antibody, IgG4, V domains shown) VH: QVTLKESGPVLVKPTETLTLTCTVSGFSLNNARVGVSWIRQPPGKALEWLAHIWSNDEKSYSTSLKSRLTISKDTSKSQVVLTMTNMDPVDTATYYCARSVVTGGYYYEGMDVWGQGTTVTVSS VL: SYVLTQPPSVSVAPGQTARITCGGNNIGSESVHWYQQKPGQAPVLVVDDSDRPSGIPERFSGSNSGNTATLTISRVEAGDEADYYCQVFDGNCVCVVFGGGTKLTVLG | > 100 nM

Now consider a different binder.
Lookup: Assign EC50 to the following record: Ab0457 (antibody, IgG4, V domains shown) VH: QVTLKESGPVLVKPTETLTLTCTVSGFSLSNARVGVSWIRQPPGKALEWLAHIFSNDEKSYSTSLKSRLTISKDTSKSQVVLTMTNMDPVDTATYYCARSVVTGGYYYEGMDVWGQGTTVTVSS VL: SYVLTQPPSVSVAPGQTARITCGGSNIGSESVHWYQQKPGQAPVLVVYSASDRPSGIPERFSGSNSGNTATLTISRVEAGDEADYYCQVWEGESDHVVFGGGTKLTVLG
Found: 0.02 nM
